This section presents log10(IC50) values reported for Alpha-1D adrenergic receptor (Homo sapiens, UniProt P25100) in the literature.
Sequence (P25100 whole entry): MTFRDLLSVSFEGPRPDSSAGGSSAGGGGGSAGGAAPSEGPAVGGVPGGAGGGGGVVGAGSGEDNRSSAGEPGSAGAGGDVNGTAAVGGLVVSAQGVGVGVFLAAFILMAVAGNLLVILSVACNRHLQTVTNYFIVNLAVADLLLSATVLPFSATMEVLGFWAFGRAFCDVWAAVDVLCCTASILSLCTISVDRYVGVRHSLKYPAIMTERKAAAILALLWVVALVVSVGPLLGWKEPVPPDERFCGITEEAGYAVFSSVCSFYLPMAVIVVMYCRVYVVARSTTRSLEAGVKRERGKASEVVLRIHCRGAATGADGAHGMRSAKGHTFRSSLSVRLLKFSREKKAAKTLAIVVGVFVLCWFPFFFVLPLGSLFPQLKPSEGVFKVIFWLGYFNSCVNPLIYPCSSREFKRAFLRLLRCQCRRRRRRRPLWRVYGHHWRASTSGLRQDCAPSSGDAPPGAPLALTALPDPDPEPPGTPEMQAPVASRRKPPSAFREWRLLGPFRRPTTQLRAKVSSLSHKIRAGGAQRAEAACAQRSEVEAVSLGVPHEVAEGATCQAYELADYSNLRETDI
ENDPOINT_NAME: log10(IC50) (log10 of the value in nM)

> print(dat)
                                    compound  numeric.value
 1  CC(C)Oc1ccccc1N1CCN(CC(O)CNC(=O)c2ccc3c(c2)C(=O)N(c2cc(F)cc(F)c2)C3=O)CC1 (centres unmarked)           1.58
 2  Cc1ccc(Oc2ncccc2C(=O)NCC(O)CN2CCN(c3ccccc3OC(C)C)CC2)cc1 (centres unmarked)           1.32
 3  CC(C)Oc1ccccc1N1CCN(CC(O)CNC(=O)c2ccc3c(c2)C(=O)N(c2ccc(F)cc2)C3=O)CC1 (centres unmarked)           2.05
 4  CC(C)Oc1ccccc1N1CCN(CC(O)CNC(=O)c2ccc3c(c2)C(=O)N(c2cccc(Cl)c2)C3=O)CC1 (centres unmarked)           1.57
 5  COC(CNC(=O)c1ccc2c(c1)C(=O)N(c1cccc(F)c1)C2=O)CN1CCN(c2ccccc2OC(C)C)CC1 (centres unmarked)           2.61
 6  COc1ccccc1N1CCN(Cc2ccc(CN3CCCCC3CO)s2)CC1 (centres unmarked)           2.42
 7  CC(C)Oc1ccccc1N1CCN(CC(O)CNC(=O)c2cccnc2Oc2ccc(F)cc2)CC1 (centres unmarked)           2.17
 8  CC(C)Oc1ccccc1N1CCN(Cc2cccc(CN3C(=O)CCCC3c3ccccc3)n2)CC1 (centres unmarked)           2.46
 9  CC(C)Oc1ccccc1N1CCN(CC(O)CNC(=O)c2ccc3c(c2)C(=O)N(c2ccc(Cl)c(Cl)c2)C3=O)CC1 (centres unmarked)           1.60
10  Cc1ccc(N2C(=O)c3ccc(C(=O)NCC(O)CN4CCN(c5ccccc5OC(C)C)CC4)cc3C2=O)cc1 (centres unmarked)           1.79
11  O=C1CCCN1Cc1cc(CN2CCN(c3ccccc3Oc3ccccc3)CC2)on1           2.53
12  CC(C)Oc1ccccc1N1CCN(C[C@H](O)CNC(=O)c2ccc3c(c2)C(=O)N(c2cccc(F)c2)C3=O)CC1           1.80
13  COc1ccc(Oc2ncccc2C(=O)NCC(O)CN2CCN(c3ccccc3OC(C)C)CC2)cc1 (centres unmarked)           2.12
14  O=C1CCCCCN1Cc1cc(CN2CCN(c3ccccc3Oc3ccccc3)CC2)on1           2.76
15  CC(C)Oc1ccccc1N1CCN(Cc2ncc(CN3CCCCC3=O)s2)CC1           2.32
16  COc1ccccc1N1CCN(Cc2ccc(CN3CCCCCC3=O)s2)CC1           1.38
17  CC(C)Oc1ccccc1N1CCN(CC(O)CNC(=O)c2cccnc2Sc2ccccc2)CC1 (centres unmarked)           1.85
18  CC(C)Oc1ccccc1N1CCN(CC(O)CNC(=O)c2ccc3c(c2)C(=O)N(c2ccc(C(C)(C)C)cc2)C3=O)CC1 (centres unmarked)           1.88
19  COc1ccc(N2C(=O)c3ccc(C(=O)NCCCN4CCN(c5ccccc5OC(C)C)CC4)cc3C2=O)cc1           1.20
20  CC(C)Oc1ccccc1N1CCN(CC(O)CNC(=O)c2ccc3c(c2)C(=O)N(c2ccc([N+](=O)[O-])cc2)C3=O)CC1 (centres unmarked)           1.58
21  Cc1ccc(N2C(=O)c3ccc(C(=O)NCC(O)CN4CCN(c5ccccc5OC(C)C)CC4)cc3C2=O)cc1C (centres unmarked)           1.86
22  CC(C)Oc1ccccc1N1CCN(CC(O)CNC(=O)c2ccc3c(c2)C(=O)N(c2ccc(O)cc2)C3=O)CC1 (centres unmarked)           1.45
23  CC(C)Oc1ccccc1N1CCN(Cc2cc(CN3CCCCCC3=O)cs2)CC1           1.98
